- ASSAY REMARKS: fission yeast growth modulation, primary screen, strain 972, OD600, 24 h, no modulator (AID 1090);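 further: basal condition with compound alone and no growth modifier present; test concentration not given here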
- CONDITION INFO: S. pombe 972 growth, higher = more signal, called active from +8 up or from −8 down
Lab note: anything with z-score at or over 0.5 counts as TRUE; the rest go in FALSE.

Given "COC(=O)C[C@H]1O[C@]2(C(=O)N(C)c3ccccc32)[C@@H](C)[C@@H]1[Si](C)(C)c1ccccc1" , state whether its z-score is at least 0.5.
FALSE

Now give it for "[N-]=[N+]=NCc1ccccc1[C@H]1OC(c2ccc(OCCCO)cc2)=N[C@@]1(Cc1ccccc1N=[N+]=[N-])C(=O)N1CCOCC1" too.
TRUE

Now give it for O=C1C2C=CC(C(O)C(c3ccccc3)c3ccccc3)N(Nc3ccccc3F)C2C(=O)N1c1ccccc1 (stereo not drawn) too.
TRUE

Now give it for "CCCNC(=O)[C@@]1(Sc2ccc(C)cc2)CC(=O)N(Cc2cc(C(F)(F)F)cc(C(F)(F)F)c2)[C@@H]1c1ccc(CO)cc1" too.
FALSE

Now give it for "O=C1O[C@H](c2ccccc2)[C@H](c2ccccc2)N2[C@H]1[C@@H](C(=O)Nc1nc3ccccc3s1)[C@]1(C(=O)Nc3ccccc31)[C@H]2c1ccccc1OCCO" too.
TRUE

Now give it for "COC(=O)[C@@]1(Cc2ccc(F)cc2)[C@H]2c3cc(C(=O)N4CCCC4)n(Cc4ccc(OC(F)(F)F)cc4)c3C[C@H]2CN1C(=O)c1ccccc1" too.
TRUE

Now give it for "COc1cccc(C)c1NC(=O)O[C@H]1[C@H](OC(=O)Nc2ccccc2)[C@@H](OC(=O)Nc2ccccc2)[C@@H](OC)O[C@@H]1CO" too.
FALSE

Now give it for "Cc1cccc([C@H]2C[C@H]3C(Br)=C[C@@]2(CO)C(=O)[C@]32CO2)c1" too.
FALSE

Now give it for "COCCOC(=O)N1C(=O)[C@@]2(c3cc(C#CCC(C(=O)OC)C(=O)OC)ccc31)[C@H](C(N)=O)[C@H]1C(=O)O[C@H](c3ccccc3)[C@H](c3ccccc3)N1[C@@H]2c1ccccc1OCCO" too.
FALSE

Now give it for "COCCOC(=O)N1C(=O)[C@@]2(c3cc(C#CCNC(N)=O)ccc31)[C@H](c1ccccc1OCCO)N1[C@H](c3ccccc3)[C@H](c3ccccc3)OC(=O)[C@H]1[C@@H]2C(=O)N1CCCCCCC1" too.
FALSE

Now give it for CCCCCN1CC=CC23O[C@@H]4/C=C\CCCOC(=O)C4[C@H]2C(=O)N(CCCCCO)[C@@H]3C1=O (stereo partly drawn) too.
FALSE

Now give it for COc1ccc(NN2C(C(O)c3ccccc3)C=CC3C(=O)N(C4CCCCC4)C(=O)C32)cc1 (stereo not drawn) too.
TRUE

Now give it for "COc1ccc([Si](C)(C)[C@@H]2[C@@H](CC(=O)N(CCO)Cc3ccccc3)O[C@]3(C(=O)N(Cc4cccc(I)c4)c4ccccc43)[C@H]2C)cc1" too.
TRUE

---

- Test system: Human papillomavirus type 1a E7 protein (residues 1-88)
- ASSAY REMARKS: HPV1a E7 small-molecule binders, primary screen, biochemical, small-molecule microarray, residues 1-88, 635 nm (AID 1129)
- CONDITION INFO: small-molecule microarray binding, fluorescence 635 nm; higher = more signal
MEASURED QUANTITY: composite z-score
The answer should be written as a number, with no unit following it.

Look up composite z-score for this compound: "Cc1c(NC(=O)/C(C#N)=C/C=C/c2ccc([N+](=O)[O-])cc2)c(=O)n(-c2ccccc2)n1C"
1.18

Now give it for "C=C(/C=C\CNS(=O)(=O)c1ccc(C)cc1)[C@H](O)[C@H]1CCCN1S(=O)(=O)c1ccccc1[N+](=O)[O-]" too.
0.427

Now give it for "C[C@@]1([C@@H](NS(=O)(=O)c2cccc3cccnc23)c2ccc(-c3ccccc3)cc2)C[C@H]1C1CCCCC1" too.
1.18

Now give it for "CCOC(=O)C1=CC[C@@H](c2ccccc2)N(S(=O)(=O)c2ccc(C)cc2)[C@@H]1C#N" too.
1.15

Now give it for CC(C)N1CC=CC23O[C@@H]4/C=C\CCCOC(=O)C4[C@H]2C(=O)N(C(C)CO)[C@@H]3C1=O (stereo not given in full) too.
-0.829

Now give it for O=C1C2C=CC(C(O)C(c3ccccc3)c3ccccc3)N(Nc3ccccc3F)C2C(=O)N1c1ccccc1 (stereo not given) too.
1.24

Now give it for "COC(=O)C(CC#Cc1ccc2c(c1)[C@]1(C(=O)N2)[C@H](c2ccccc2OCCO)N2[C@H](c3ccccc3)[C@H](c3ccccc3)OC(=O)[C@H]2[C@@H]1C(=O)N1CCN(c2ncccn2)CC1)C(=O)OC" too.
1.22

Now give it for "CC(C)C[C@@H]1NC(=O)[C@@H]2C[C@H](C(=O)NCCCCCCNC(=O)CS)[C@H](c3ccc(O)cc3)N2C1=O" too.
1.28

Now give it for "C=C(COC)/C(=C/C[C@@H](OC(=O)c1ccncc1)c1ccccc1OCCO)c1cnc2ccccc2c1" too.
1.17

Now give it for COc1ccc(NN2C(C(O)c3ccccc3)C=CC3C(=O)N(C4CCCCC4)C(=O)C32)cc1 (stereo not given) too.
1.26

---

Provide the recorded composite z-score for the entries that follow.
- ASSAYED TARGET: Torsin-1A (Homo sapiens) (UniProt O14656)
- Sequence (O14656 whole entry, looked up): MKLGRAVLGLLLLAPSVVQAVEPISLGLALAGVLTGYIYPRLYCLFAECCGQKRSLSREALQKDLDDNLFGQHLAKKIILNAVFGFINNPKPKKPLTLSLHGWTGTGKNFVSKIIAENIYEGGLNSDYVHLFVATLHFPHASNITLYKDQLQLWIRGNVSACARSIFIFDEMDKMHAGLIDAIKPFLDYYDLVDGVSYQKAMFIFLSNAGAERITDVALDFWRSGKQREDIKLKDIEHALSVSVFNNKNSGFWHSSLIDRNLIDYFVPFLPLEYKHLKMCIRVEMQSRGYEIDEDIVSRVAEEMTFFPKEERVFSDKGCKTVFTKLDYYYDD
- ASSAY REMARKS: small-molecule binders of mutant TOR1A in lysate, primary screen, cell lysate, small-molecule microarray, COS7 lysate, 635/667 nm fluorescence (AID 1150);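 further: score pools 667 nm emission and signal to noise measuring lysate protein binding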
- CONDITION INFO: COS7 hTOR1A mutant lysate, 635 nm fluorescence, higher = more signal
The answer should be written as a number, with no unit following it.

Look up composite z-score for this compound: CN1C(=O)C2C=CC(C(O)COCc3ccccc3)N(Nc3ccc([N+](=O)[O-])cc3[N+](=O)[O-])C2C1=O (stereo unspecified)
0.713

Now give it for "C=C(CCCC)/C(=C/C[C@@H](OC(C)=O)c1ccc(OCCO)cc1)c1cc(C(=O)OC)ccc1OC" too.
0.687

Now give it for "COC(=O)[C@@]1(Cc2ccc(F)cc2)[C@H]2c3cc(C(=O)N(C)C)n(Cc4ccc(C(F)(F)F)nc4)c3C[C@H]2CN1C(=O)c1ccccc1" too.
0.717

Now give it for "C=C(CC1([C@@H](NP(=O)(c2ccccc2)c2ccccc2)[C@H]2C[C@@H]2CCCC)CC1)c1cccc(OC)c1" too.
-0.302

Now give it for "C=CC[C@]1(C(=O)NCCN2CCOCC2)N=C(c2ccc(OCCCO)cc2)O[C@H]1c1ccccc1" too.
1.44

Now give it for "C=C(C(=O)CC[C@@H](OC(=O)c1ccccc1-c1ccccc1C(=O)O)c1cccc(OCCO)c1)C(C)C" too.
1.59

Now give it for CC(C)c1ccc(NN2C(C(O)C3=C[C@H]4C[C@@H](C3)C4(C)C)C=CC3C(=O)N(c4ccccc4)C(=O)C32)cc1 (stereo partly specified) too.
0.562

Now give it for "[N-]=[N+]=Nc1ccccc1C[C@@]1(C(=O)NCc2ccccc2)N=C(c2ccc(OCCCO)cc2)O[C@@H]1c1ccccc1" too.
0.506

Now give it for "C=C(CCCC)/C(=C/C[C@@H](OC(C)=O)c1cccc(OCCO)c1)c1cc(C(=O)OC)ccc1OC" too.
-0.558

Now give it for "COC(=O)[C@@]1(Cc2ccc(F)cc2)[C@H]2c3cc(C(=O)N4CCCC4)n(Cc4ccc(C(F)(F)F)nc4)c3C[C@H]2CN1C(=O)c1ccccc1" too.
1.14

Now give it for "CO[C@H]1O[C@H](CO)[C@@H](OC(=O)Nc2cccc(F)c2)[C@H](OC(=O)c2cc3ccccc3[nH]2)[C@H]1OC(=O)c1cc2ccccc2[nH]1" too.
-0.18

---

- System: Human papillomavirus type 1a protein E7 (residues 44-93)
- ASSAY REMARKS: HPV1a E7 fragment binders on microarrays, primary screen, biochemical, small-molecule microarray, residues 44-93, 635 nm fluorescence (AID 1108);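 further: E7 fragment applied at 1 µg/mL in TBST for 1 h at 4 C; score combines spot fluorescence with its signal to noise ratio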
- CONDITION INFO: small-molecule microarray binding, fluorescence 635 nm; higher = more signal
Lab note: anything with composite z-score at or over 0.2 counts as 1.0; the rest go in 0.0.

Given "COC(=O)[C@@]1(Cc2ccc(F)cc2)[C@H]2c3cc(C(=O)N(C)C)n(Cc4ccc(C(F)(F)F)nc4)c3C[C@H]2CN1C(=O)c1ccccc1" , state whether its composite z-score is at least 0.2.
1.0

Now give it for "COC(=O)C[C@H]1O[C@]2(C(=O)N(C)c3ccccc32)[C@@H](C)[C@@H]1[Si](C)(C)c1ccccc1" too.
1.0

Now give it for "C=CCNC(=O)[C@H]1[C@@H]2C(=O)O[C@@H](c3ccccc3)[C@@H](c3ccccc3)N2[C@@H](c2ccc(OCCO)cc2)[C@]12C(=O)Nc1ccc(C#Cc3ccc(OC)cc3)cc12" too.
1.0

Now give it for "C=CCOC(=O)[C@H]1[C@@H]2C(=O)O[C@@H](c3ccccc3)[C@@H](c3ccccc3)N2[C@@H](c2ccc(OCCOC(=O)[C@H]3C[C@H]4C(=O)NCC(=O)N4[C@H]3c3cccc(OCCO)c3)cc2)[C@]12C(=O)Nc1ccc(I)cc12" too.
1.0

Now give it for COC(=O)[C@H](Cc1ccccc1)N1CC(C)(OC)O[C@@H](Cc2ccccc2)[C@H]1/C=C/C1CC1 (stereo partly specified) too.
1.0

Now give it for "COCCCNC(=O)[C@]1(Cc2ccccc2CN=[N+]=[N-])N=C(c2ccc(OCCCO)cc2)O[C@@H]1c1ccccc1N=[N+]=[N-]" too.
1.0

Now give it for "O=C(NCC(F)(F)F)[C@@H]1c2ccccc2C(=O)N(Cc2cc(C(F)(F)F)cc(C(F)(F)F)c2)[C@H]1c1ccc(CO)cc1" too.
1.0

Now give it for "COc1ccc(C(=O)Nc2cccc(CN3C(=O)[C@]4(O[C@H](CC(=O)N(CCO)Cc5ccccc5)[C@@H]([Si](C)(C)c5ccc(OC)cc5)[C@@H]4C)c4ccccc43)c2)cc1" too.
1.0

Now give it for C=CC[C@]1(C(=O)NCC(O)CO)N=C(c2ccc(OCCCO)cc2)O[C@H]1c1ccccc1CN=[N+]=[N-] (stereo partly specified) too.
1.0

Now give it for O=C1C2C=CC(C(O)c3ccccn3)N(Nc3ccc([N+](=O)[O-])cc3)C2C(=O)N1c1ccccc1 (stereo unspecified) too.
0.0

Now give it for "COC(=O)[C@@]1(Cc2ccc(F)cc2)[C@H]2c3cc(C(=O)N(C)C)n(CCF)c3C[C@H]2CN1C(=O)c1ccccc1" too.
0.0
